# System: Wild type
# Procedure details: S. aureus survival, RN4220 and DeltatarO strains – OD600, teichoic acid synthesis inhibitors, primary screen (AID 463173)
# Condition summary: S. aureus RN4220 wild type/DeltatarO growth, OD600, 18 h, hits give low values, screened at 18.75 µg/mL (by protocol)
In all, about 52,000 compounds went through this assay and about 1,700 (3.3%) were called active. The sample holds actives, similar compounds and a random draw of the others, so the mix is not that of the screen.
Readout label: survival (%)
Write it as a number; the unit % goes unstated.

query: Which measured survival value corresponds to Cc1ccc(NC(=O)Cc2c(C(=O)O)c(C)cn2C)cc1Cl ?
result: 87

query: Let us now turn to CCOc1ccc(NC(=O)Cn2c(=O)oc3cc(S(=O)(=O)NC4CCCC4)ccc32)cc1
result: 81

query: Let us now turn to Cn1c(=O)c2c(-c3ccccc3)n3c(c2n(C)c1=O)C(c1cccc([N+](=O)[O-])c1)Nc1ccccc1-3 (stereo not given)
result: 31

query: Let us now turn to Cc1ccc(NC(=O)CCc2c(C)nn(-c3ccc(N4CCCCC4)nn3)c2C)cc1F
result: 146

query: Let us now turn to Cc1ccccc1C(=O)Nc1sc2c(c1C(=O)NCc1ccco1)CCC(C(C)(C)C)C2 (stereo not given)
result: 88

query: Let us now turn to CC(C)(C)C1CCc2c(sc(NC(=O)c3ccc(Cl)cc3)c2C(=O)NCc2ccco2)C1 (stereo not given)
result: 95

query: Let us now turn to O=C(NCCCc1nc2ccccc2n1Cc1ccccc1F)c1ccco1
result: 92

query: Let us now turn to Cc1ccccc1NC(=O)c1c(NC(=O)c2ccccc2F)sc2c1CCC(C)C2 (stereo not given)
result: 82

query: Let us now turn to CCc1nn(CC(=O)NCC(C)c2ccccc2)c(=O)c2cc3c(OC)cccc3n12 (stereo not given)
result: 89

query: Let us now turn to CC(C)(C)C1CCc2c(sc(NC(=O)c3cccc(Cl)c3)c2C(N)=O)C1 (stereo not given)
result: 75

query: Let us now turn to Cn1c(=O)c2c(-c3ccccc3)n3c(c2n(C)c1=O)C(c1cc(Cl)ccc1O)Nc1ccccc1-3 (stereo not given)
result: -9

query: Let us now turn to CC(C)(C)C1CCc2c(sc(NC(=O)CCC(=O)O)c2C(=O)Nc2ccccc2C(F)(F)F)C1 (stereo not given)
result: 1

query: Let us now turn to O=C(Cn1c(-c2cccs2)cc2cc(F)ccc21)N1CCCCC1
result: 72

query: Let us now turn to NC(=O)c1ccccc1NC(=O)CSc1nc(N)cc(=O)[nH]1
result: 111

query: Let us now turn to CCc1nn(CC(=O)Nc2ccc(C)cc2C)c(=O)c2cc3sccc3n12
result: 90

query: Let us now turn to COc1ccccc1-c1cc2nc(C)c(CCC(=O)NCc3cccc(Cl)c3)c(C)n2n1
result: 112

query: Let us now turn to CCOc1ccc(CCNC(=O)c2ccc3nc(N4CCC(C)CC4)sc3c2)cc1OCC
result: 73

query: Let us now turn to Cc1c(-c2ccccc2)c(=O)oc2ccc(OC(=O)N3CCOCC3)cc12
result: 78

query: Let us now turn to CCCN(CCC)C(=O)Cn1c(=O)n(Cc2ccc(C(=O)NCCc3ccc(Cl)cc3)cc2)c(=O)c2ccccc21
result: 113

query: Let us now turn to Cc1ccc(-n2ncc(C(=O)NCCCN3CCN(c4cccc(Cl)c4)CC3)c2-n2cccc2)cc1
result: 59

query: Let us now turn to CCC(C(=O)NC1CCCCC1)n1c(SCc2ccccc2F)nc2ccncc21 (stereo not given)
result: 73

query: Let us now turn to COc1ccccc1NC(=O)c1c(NC(=O)c2cccs2)sc2c1CCC(C(C)(C)C)C2 (stereo not given)
result: 118

query: Let us now turn to CCCNC(=O)c1c(NC(=O)c2ccccc2)sc2c1CCC(C(C)(C)C)C2 (stereo not given)
result: 2

query: Let us now turn to Cc1ccc(C(=O)Nc2sc3c(c2C(=O)NCc2ccco2)CCC(C(C)(C)C)C3)cc1 (stereo not given)
result: 70

query: Let us now turn to CCCCN(C)C(=O)Cn1ncc2c([nH]c3ccc(C)cc32)c1=O
result: 81

query: Let us now turn to Cn1c(=O)c2c(-c3ccccc3)n3c(c2n(C)c1=O)C(c1ccccc1[N+](=O)[O-])Nc1ccccc1-3 (stereo not given)
result: 76

query: Let us now turn to Cc1ccc(CNC(=O)Cn2ncc3c([nH]c4ccc(C)cc43)c2=O)cc1
result: 79

query: Let us now turn to O=C(NCCc1nc2ccccc2n1Cc1ccccc1F)c1ccc(F)cc1
result: 82

query: Let us now turn to CCCN1CCN(c2ncnc3sc(C(=O)Nc4ccc(N(CC)CC)cc4C)c(C)c23)CC1
result: 128

query: Let us now turn to CCCCCNC(=O)C(=O)NCC(c1ccc2c(c1)OCO2)N1CCOCC1 (stereo not given)
result: 68

query: Let us now turn to C=CCN(CC=C)C(=S)Nc1ccc2nc(C)c(C)nc2c1
result: 110

query: Let us now turn to Cc1ccc2[nH]c3c(=O)n(CC(=O)N(C)Cc4ccccc4)ncc3c2c1
result: -3

query: Let us now turn to Cc1ccccc1Cn1c(CCCNC(=O)C2CCCCC2)nc2ccccc21
result: 101

query: Let us now turn to COc1ccccc1C1Nc2ccccc2-n2c(-c3ccccc3)c3c(=O)n(C)c(=O)n(C)c3c21 (stereo not given)
result: 65

query: Let us now turn to COc1cccc(OCc2nc3ccccc3n2Cc2ccccc2C)c1
result: 87

query: Let us now turn to CCc1ccc(-n2c(N3CCN(c4cccc(C)c4C)CC3)nc3ccccc3c2=O)cc1
result: 81

query: Let us now turn to COc1cc(NC(=O)CC(C)S(=O)(=O)c2cc3c4c(c2)CCN4C(=O)CC3)cc(OC)c1 (stereo not given)
result: 76

query: Let us now turn to Cc1ccccc1C(=O)Nc1sc2c(c1C(=O)O)CCC(C(C)(C)C)C2 (stereo not given)
result: 6

query: Let us now turn to Cc1ccc2[nH]c3c(=O)n(CC(=O)NC(C)C)ncc3c2c1
result: 1

query: Let us now turn to COc1ccc(-c2onc(C)c2C)cc1S(=O)(=O)N1CCc2ccccc21
result: 1

###

# Tested on: Wild type
# Procedure details: S. aureus survival, RN4220 and DeltatarO strains – OD600, teichoic acid synthesis inhibitors, primary screen (AID 463173)
# Condition summary: S. aureus RN4220 wild type/DeltatarO growth, OD600, 18 h, hits give low values, screened at 18.75 µg/mL (by protocol)
Hit rate of the full screen: of about 52,000 compounds, about 1,700 (3.3%) were called active. The sample as a whole holds a higher share of actives than the screen did.
Readout label: survival (%)
Write it as a number; the unit % goes unstated.

query: Which measured survival value corresponds to Cc1nc(N2CCCC2)c2c(C(=O)N3CCN(c4cc(Cl)ccc4C)CC3)c(C)oc2n1 ?
result: 99

query: Let us now turn to Cc1cc(C)nc(SC2=CS(=O)(=O)c3ccccc32)n1
result: 99

query: Let us now turn to CCN(CC)Cc1cc(C(=O)O)oc1C(C)(C)C
result: 106

query: Let us now turn to Cc1ccc(Cl)cc1N1CCN(C(=O)c2c(C)oc3ncnc(N4CCCCC4)c23)CC1
result: -6

query: Let us now turn to CC(C)(C)NSc1nc2ccccc2s1
result: 68

query: Let us now turn to CCN(C(=O)Cn1ncc2c(=O)oc3ccc(C)cc3c21)c1cc(OC)ccc1OC
result: 86

query: Let us now turn to CCCCn1cc2c(c1-c1ccc(Cl)cc1)c(=O)n(C)c(=O)n2C
result: 83

query: Let us now turn to Cc1nc(N2CCOCC2)c2c(C(=O)N3CCN(c4cccc(C(F)(F)F)c4)CC3)c(C)oc2n1
result: 79

query: Let us now turn to C#CCNC(=O)NC1CCCN(S(=O)(=O)c2ccc(C)cc2)C1 (stereo unspecified)
result: 112

query: Let us now turn to O=C(NCCO)c1ccc2[nH]c3c(c2c1)CCCC3
result: 102

query: Let us now turn to Cc1ccc(N(Cc2cccs2)C(=O)c2ccccc2[N+](=O)[O-])cc1
result: 82

###

# System: Wild type
# Procedure details: S. aureus survival, RN4220 and DeltatarO strains – OD600, teichoic acid synthesis inhibitors, primary screen (AID 463173)
# Condition summary: S. aureus RN4220 wild type/DeltatarO growth, OD600, 18 h, screened at 18.75 µg/mL (by protocol)
Out of some 52,000 compounds screened, about 1,700 (3.3%) were called active. Cut-off read from the data, not from the text of the source: active = survival mostly below about 52% (no sharp cut-off); inactive = mostly above about 56%. The full list was thinned out, with actives kept by preference.
Select the matching outcome among 1 (active), -1 (inactive)

query: # outcome recorded in this test, key = Cc1ccccc1NS(=O)(=O)c1ccc2[nH]cc(C(=O)NC3CCCCC3)c(=O)c2c1
result: -1

query: Let us now turn to Cc1c(Cl)cccc1NS(=O)(=O)c1ccc2[nH]cc(C(=O)NC3CCCC3)c(=O)c2c1
result: 1

query: Let us now turn to CCOc1ccc(NS(=O)(=O)c2ccc3[nH]cc(C(=O)NCc4ccccc4)c(=O)c3c2)cc1
result: -1

query: Let us now turn to CCc1ccc(NS(=O)(=O)c2ccc3[nH]cc(C(=O)NC4CCCC4)c(=O)c3c2)cc1
result: 1

query: Let us now turn to CNC(=O)c1c[nH]c2ccc(S(=O)(=O)Nc3cccc(Cl)c3C)cc2c1=O
result: -1

Data provenance is PubChem BioAssay AID463173.
